Target or test system: T1, FcRn-p3 fusion protein (human, UniProt P55899 24-297; P61769 21-119)
T1 construct: baculovirus expressed; coated on ELISA wells; not shown: amino terminal part of bacteriophage p3 protein and CVDE protein
T1 sequence (P55899 24-297, chain 1 of 2): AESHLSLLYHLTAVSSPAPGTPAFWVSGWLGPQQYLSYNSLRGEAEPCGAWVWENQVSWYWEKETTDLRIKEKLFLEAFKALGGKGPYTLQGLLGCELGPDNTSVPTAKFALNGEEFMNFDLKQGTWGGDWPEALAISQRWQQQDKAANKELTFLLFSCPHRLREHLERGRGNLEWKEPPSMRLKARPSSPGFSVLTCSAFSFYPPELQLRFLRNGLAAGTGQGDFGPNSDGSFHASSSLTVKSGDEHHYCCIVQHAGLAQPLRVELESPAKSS
T1 sequence (P61769 21-119, chain 2 of 2): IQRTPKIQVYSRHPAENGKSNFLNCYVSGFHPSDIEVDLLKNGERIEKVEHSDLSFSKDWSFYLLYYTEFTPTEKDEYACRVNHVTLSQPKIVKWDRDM
Assay details: phage ELISA pH6
For each entry below, report its Ratio/Fc-H value.

Tell me measured Ratio/Fc-H for T7A_35 (other, EU numbering) CPPCPAPELLGGPSVFLFPPKPKDTLMISRTPEVTCVVVDVSHEDPEVKFNWYVDGVEVHNAKTKPREEQYNSTYRVVSVLTVLHQDWLDGKEYKCKVSNKALPAPIEKTISKAKGQPREPQVYTLPPSRDELTKNRVSLTCLVKGFYPSDIAVEWESNGQPENNYKTTPPVLDSDGSFFLYSKLTVDKSRWQQGNVFSCSVMHEALHYHYTQKSLSLPPGK please.
1.7 fold

Tell me measured Ratio/Fc-H for T4A_04 (other, EU numbering) CPPCPAPELLGGPSVFLFPPKPKDTLMISRTPEVTCVVVDVSHEDPEVKFNWYVDGVEVHNAKTKPREEQYNSTYRVVSVLTVLHQDWLDGKEYKCKVSNKALPVPIEKTISKAKGQPREPQVYTLPPSRDELTKNQVSLTCLVKGFYPSDIAVEWVSNGQPENNYKTTPPVLDSDGSFFLYSKLTVDKSRWQQGNVFSCSVMHEALHYHYTQKSLSLSPGK please.
3 fold

Tell me measured Ratio/Fc-H for T8A_45 (other, EU numbering) CPPCPAPELLGGPSVFLFPPKPKDTLMISRTPEVTCVVVDVSHEDPEVKFNWYVDGVEVHNAKTKPREEQYNSTYRVVSVLTVLHQDWLNGKEYKCKVSNKALPAPIEKTISKAKGQPREPQVYTLPPSRDELTKNQVSLTCLVKGFYPADIVVEWESNGQPENNYKTTPPVLDSDGSFFLYSKLTVDKSRWQQGNVFSCSVMHEALHYHYTQKSLSLSPGK please.
1.8 fold

Attribution: patent USRE46585
